A collection of sequences and their measured shrunken log2 fold change
# System: Escherichia coli TOP10
# Assay Notes: shrunken log2 fold change of peptide-encoding DNA abundance (4.5 h post-induction vs induction); higher = less antimicrobial activity (less host growth inhibition)
# Condition Notes: time post-induction: 4.5 h; library: site-saturation at positions 5, 18, 19, 20
Answer with the value's number alone.

Known results for sequences:
>  <Primary Sequence>
RRIRSRPPRLPRPRPRPSRVPRP

>  <Target Desc>
Escherichia coli TOP10

>  <Measured>
0.107

$$$$
>  <Primary Sequence>
RRIRWRPPRLPRPRPRPRPTPRP

>  <Target Desc>
Escherichia coli TOP10

>  <Measured>
0.547

$$$$
>  <Primary Sequence>
RRIRIRPPRLPRPRPRPADGPRP

>  <Target Desc>
Escherichia coli TOP10

>  <Measured>
0.276

$$$$
>  <Primary Sequence>
RRIRPRPPRLPRPRPRPLWNPRP

>  <Target Desc>
Escherichia coli TOP10

>  <Measured>
-0.0917

$$$$
>  <Primary Sequence>
RRIRVRPPRLPRPRPRPGHEPRP

>  <Target Desc>
Escherichia coli TOP10;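 note: peptides expressed intracellularly from a pBAD plasmid library in pooled LB shake-flask culture, induced with 0.3% L-arabinose, DNA abundance read by NGS, three biological replicates, DESeq2 with apeglm shrinkage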

>  <Measured>
-0.0501

$$$$

Per the records, this sequence ( RRIRVRPPRLPRPRPRPFVRPRP ) has shrunken log2 fold change equal to -0.0708

The measured shrunken log2 fold change associated with RRIRARPPRLPRPRPRPLGFPRP reads 0.644

shrunken log2 fold change measured on RRIRNRPPRLPRPRPRPTQVPRP = 0.152

For reference, reported shrunken log2 fold change for RRIRTRPPRLPRPRPRPPCYPRP stands at -0.139

Record summary for RRIRWRPPRLPRPRPRPFTPPRP : reported shrunken log2 fold change = -0.0823

So for RRIRGRPPRLPRPRPRPKHCPRP , the logged shrunken log2 fold change turned out to be 0.216

In plain terms, RRIRDRPPRLPRPRPRPACHPRP has a documented shrunken log2 fold change of 0.0454

The sequence listed as RRIRHRPPRLPRPRPRPVCHPRP has a reported shrunken log2 fold change of -0.198

For record RRIRQRPPRLPRPRPRPRWCPRP the listed shrunken log2 fold change is -0.0737

// shrunken log2 fold change lookup, sequence = RRIRIRPPRLPRPRPRPLMKPRP , result: -0.232
